Target: CFTR G551D mutant (Homo sapiens, UniProt P13569, G551D)
Construct: expressed in transfected cells; host or cells: HEK293 (reverse transfection with plasmid)
Sequence (P13569 whole entry G551D): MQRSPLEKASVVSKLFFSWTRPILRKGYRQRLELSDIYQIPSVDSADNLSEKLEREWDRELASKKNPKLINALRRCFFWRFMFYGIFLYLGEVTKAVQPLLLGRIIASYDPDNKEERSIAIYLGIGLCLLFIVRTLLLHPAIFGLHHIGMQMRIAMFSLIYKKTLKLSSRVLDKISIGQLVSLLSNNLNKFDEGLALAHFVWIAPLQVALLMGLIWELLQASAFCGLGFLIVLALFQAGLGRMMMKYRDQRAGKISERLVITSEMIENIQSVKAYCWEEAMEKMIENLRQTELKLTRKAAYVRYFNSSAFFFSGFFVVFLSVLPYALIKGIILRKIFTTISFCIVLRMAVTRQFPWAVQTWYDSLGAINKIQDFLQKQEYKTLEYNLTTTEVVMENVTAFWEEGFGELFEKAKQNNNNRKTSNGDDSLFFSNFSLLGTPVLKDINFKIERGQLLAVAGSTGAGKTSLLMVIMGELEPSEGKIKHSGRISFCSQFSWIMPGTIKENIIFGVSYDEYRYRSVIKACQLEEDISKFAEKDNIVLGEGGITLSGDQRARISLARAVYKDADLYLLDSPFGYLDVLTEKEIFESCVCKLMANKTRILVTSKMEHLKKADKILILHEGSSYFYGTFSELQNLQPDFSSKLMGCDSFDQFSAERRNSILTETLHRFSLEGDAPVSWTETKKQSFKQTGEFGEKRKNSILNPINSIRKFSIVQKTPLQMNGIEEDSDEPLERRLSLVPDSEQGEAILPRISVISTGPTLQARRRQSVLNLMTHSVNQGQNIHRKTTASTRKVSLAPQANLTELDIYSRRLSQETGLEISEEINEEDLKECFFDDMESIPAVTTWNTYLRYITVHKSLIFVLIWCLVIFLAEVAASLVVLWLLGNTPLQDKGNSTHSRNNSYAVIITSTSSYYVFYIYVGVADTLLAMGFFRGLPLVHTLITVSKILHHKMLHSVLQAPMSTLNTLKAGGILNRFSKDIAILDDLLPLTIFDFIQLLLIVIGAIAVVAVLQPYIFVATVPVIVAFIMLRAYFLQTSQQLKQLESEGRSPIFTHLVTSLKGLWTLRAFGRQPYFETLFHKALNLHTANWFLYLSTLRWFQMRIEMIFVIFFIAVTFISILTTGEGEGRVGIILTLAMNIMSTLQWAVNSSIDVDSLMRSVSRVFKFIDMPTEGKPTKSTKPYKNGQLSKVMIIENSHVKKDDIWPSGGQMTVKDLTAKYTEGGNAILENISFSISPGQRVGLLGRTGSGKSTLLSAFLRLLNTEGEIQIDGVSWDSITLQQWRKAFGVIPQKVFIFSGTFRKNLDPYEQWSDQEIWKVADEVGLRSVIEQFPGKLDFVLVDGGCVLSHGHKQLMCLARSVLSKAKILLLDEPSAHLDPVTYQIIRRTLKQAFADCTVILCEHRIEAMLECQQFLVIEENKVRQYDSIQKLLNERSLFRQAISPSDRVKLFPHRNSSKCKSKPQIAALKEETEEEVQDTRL
Test: YFP-halide influx assay for the CFTR-G551D mutation
Type: cell-based
Conditions: HEK293 cells, forskolin 10.67 μM
pEC50: −log10 of the molar value.
Mark False for pEC50 values under 6, and True for everything at or above.

Query: Is pEC50 for CC(C)N(C)S(=O)(=O)c1cc(C(N)=O)c(NC(=O)c2cc[nH]n2)s1 [Compound 210] at or above 6?
Response: True

Query: Follow-up item: CC(C)S(=O)(=O)c1cc(C(N)=O)c(NC(=O)c2ccccc2O)s1 [Compound 197]
Response: True

Continuing:
Query: Is pEC50 for CC(C)(O)C(=O)Nc1sc(S(=O)(=O)c2cccc(C(F)(F)F)n2)cc1C(N)=O [Compound 427] at or above 6?
Response: False

Query: Follow-up item: COCCOc1ccc(S(=O)(=O)c2cc(C(N)=O)c(NC(=O)C(C)(C)O)s2)cc1 [Compound 371]
Response: False

Query: Follow-up item: C[C@H](O)C(=O)Nc1sc(S(=O)(=O)c2c(Cl)cccc2Cl)cc1C(N)=O [Compound 314]
Response: True

Query: Follow-up item: COc1ccc(CN(C)S(=O)(=O)c2cc(C(N)=O)c(NC(=O)c3cc[nH]n3)s2)cc1F [Compound 160]
Response: True

Query: Follow-up item: Cc1ccc(S(=O)(=O)c2cc(C(N)=O)c(NC(=O)C(C)(C)O)s2)nc1 [Compound 384]
Response: False

----------
The entries below are paired with their reported EC50.
Target: CFTR ΔF508 mutant (Homo sapiens, UniProt P13569, DEL508-508)
Construct: expressed in transfected cells; host or cells: CFBE41o- (adenoviral transduction)
Sequence (P13569 with tags, fused parts or gaps DEL508-508): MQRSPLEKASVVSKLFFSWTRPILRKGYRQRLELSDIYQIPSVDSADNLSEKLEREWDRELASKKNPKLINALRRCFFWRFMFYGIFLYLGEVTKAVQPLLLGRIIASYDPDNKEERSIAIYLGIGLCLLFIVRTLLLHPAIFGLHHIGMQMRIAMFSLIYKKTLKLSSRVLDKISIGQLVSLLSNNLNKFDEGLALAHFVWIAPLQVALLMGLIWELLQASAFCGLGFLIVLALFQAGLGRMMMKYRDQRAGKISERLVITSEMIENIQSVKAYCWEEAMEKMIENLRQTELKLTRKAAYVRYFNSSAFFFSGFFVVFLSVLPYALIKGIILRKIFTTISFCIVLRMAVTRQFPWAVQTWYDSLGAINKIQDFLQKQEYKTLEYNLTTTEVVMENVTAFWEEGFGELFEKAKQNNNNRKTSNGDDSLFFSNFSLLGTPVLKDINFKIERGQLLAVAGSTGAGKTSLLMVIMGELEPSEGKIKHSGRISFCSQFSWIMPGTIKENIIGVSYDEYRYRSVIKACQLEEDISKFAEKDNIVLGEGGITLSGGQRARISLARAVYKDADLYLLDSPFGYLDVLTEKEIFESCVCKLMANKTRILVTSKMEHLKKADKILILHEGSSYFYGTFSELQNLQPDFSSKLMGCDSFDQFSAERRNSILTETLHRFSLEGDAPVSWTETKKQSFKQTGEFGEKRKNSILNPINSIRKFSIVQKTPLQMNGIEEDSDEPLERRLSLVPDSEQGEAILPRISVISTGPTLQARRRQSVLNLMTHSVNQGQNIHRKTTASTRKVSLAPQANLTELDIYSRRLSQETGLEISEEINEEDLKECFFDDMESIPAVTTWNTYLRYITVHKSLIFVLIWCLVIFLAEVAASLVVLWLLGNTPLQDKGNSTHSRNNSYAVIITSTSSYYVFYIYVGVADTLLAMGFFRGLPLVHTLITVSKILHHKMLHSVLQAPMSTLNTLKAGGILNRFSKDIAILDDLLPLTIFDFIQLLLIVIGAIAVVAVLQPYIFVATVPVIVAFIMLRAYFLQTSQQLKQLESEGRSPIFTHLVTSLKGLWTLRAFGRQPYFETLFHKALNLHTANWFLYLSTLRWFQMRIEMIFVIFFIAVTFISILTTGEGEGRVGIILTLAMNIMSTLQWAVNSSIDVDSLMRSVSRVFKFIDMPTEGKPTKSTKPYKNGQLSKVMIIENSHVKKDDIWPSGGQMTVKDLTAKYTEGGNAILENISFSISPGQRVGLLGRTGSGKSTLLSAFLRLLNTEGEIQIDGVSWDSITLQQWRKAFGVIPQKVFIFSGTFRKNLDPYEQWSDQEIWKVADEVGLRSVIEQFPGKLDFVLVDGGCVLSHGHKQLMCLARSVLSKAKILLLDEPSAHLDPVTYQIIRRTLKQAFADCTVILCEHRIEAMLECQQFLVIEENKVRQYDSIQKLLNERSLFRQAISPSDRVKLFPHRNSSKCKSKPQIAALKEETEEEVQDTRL
Assay: YFP-halide influx assay for the CFTR-ΔF508 mutation, gluconate buffer
Assay type: cell-based
Settings: CFBE41o- cells, forskolin 10.67 μM
The answer is to be given in nM; state only the numeric part.

Query: Which EC50 is reported with CFTR ΔF508 mutant (Homo sapiens, UniProt P13569, DEL508-508) for this entry: CN(CC1CC1)S(=O)(=O)c1cc(C(N)=O)c(NC(=O)c2ccccc2F)s1 ?
Response: 196

Query: Follow-up item: N#Cc1ccc(C(=O)Nc2sc(S(=O)(=O)N3CCCCC3)cc2C(N)=O)cc1
Response: 317

Query: Follow-up item: Cc1ccc(C(=O)Nc2sc(S(=O)(=O)N3Cc4ccccc4C3)cc2C(N)=O)s1
Response: 646

Query: Follow-up item: Cc1ccc(C(=O)Nc2sc(S(=O)(=O)N(C)c3ccccc3)cc2C(N)=O)s1
Response: 1080

----------
Target: CFTR ΔF508 mutant (Homo sapiens, UniProt P13569, DEL508-508)
Construct: expressed in transfected cells; host or cells: CFBE41o- (adenoviral transduction)
Experiment: YFP-halide influx assay for the CFTR-ΔF508 mutation (384 well, FDSS/μCell)
Assay type: cell-based
Conditions: CFBE41o- cells, CFTR-ΔF508, 1×D-PBS, fluorescence after 36 seconds
The entries below are paired with their reported EC50.
Could you give the number and then its unit, please?

Query: Any idea what its EC50 is? The compound is COc1cc(C)cc(S(=O)(=O)c2cc(C(N)=O)c(NC(=O)C(C)(C)O)s2)c1
Response: 17.7 nM

Query: Follow-up item: CC(C)(O)C(=O)Nc1sc(S(=O)(=O)c2ccc(C(F)(F)F)cc2)cc1C(N)=O
Response: 36 nM

Continuing:
Query: Any idea what its EC50 is? The compound is Cc1cc(S(=O)(=O)c2cc(C(N)=O)c(NC(=O)C(C)(C)O)s2)ncc1F
Response: 135 nM

Query: Follow-up item: COc1ccc(S(=O)(=O)c2cc(C(N)=O)c(NC(=O)C3(O)CC3)s2)cc1
Response: 113 nM

----------
Target: CFTR G551D mutant (Homo sapiens, UniProt P13569, G551D)
Construct: expressed in transfected cells; host or cells: HEK293 (reverse transfection with plasmid)
Assay: YFP-halide influx assay for the CFTR-G551D mutation
Format: cell-based
Conditions: HEK293 cells, forskolin 10.67 μM
readoutKind: pEC50
Scale: negative log10 of molar concentration, which is what pEC50 denotes.

Here's what some known entries look like.
Query: Any idea what its pEC50 is? The molecule is NC(=O)c1cc(S(=O)(=O)c2ccc(F)cc2)sc1NC(=O)c1ccccc1O
Response: 6.49

Query: Follow-up item: CN(Cc1ccc(F)cc1)S(=O)(=O)c1cc(C(N)=O)c(NC(=O)c2cc[nH]n2)s1
Response: 6.67

Query: Follow-up item: CC(C)(O)C(=O)Nc1sc(S(=O)(=O)c2ccc(OC(F)(F)F)cn2)cc1C(N)=O
Response: 5.88

Continuing:
Query: Any idea what its pEC50 is? The molecule is CC(C)(O)C(=O)Nc1sc(S(=O)(=O)c2cc(Cl)cc(C(F)(F)F)c2)cc1C(N)=O
Response: 6.03

----------
The entries below are paired with their reported pEC50.
Biological target: CFTR G551D mutant (Homo sapiens, UniProt P13569, G551D)
Construct: expressed in transfected cells; host or cells: HEK293 (reverse transfection with plasmid)
Test: YFP-halide influx assay for the CFTR-G551D mutation
Assay type: cell-based
Details: HEK293 cells, forskolin 10.67 μM
Scale: negative log10 of molar concentration, which is what pEC50 denotes.

Query: Any idea what its pEC50 is? The compound is NC(=O)c1cc(S(=O)(=O)c2ccc(F)cc2)sc1NC(=O)C1COCCO1 (stereo not shown)
Response: 5.48

Query: Follow-up item: CC(C)(O)C(=O)Nc1sc(S(=O)(=O)c2ccc(Cl)nc2)cc1C(N)=O
Response: 5.93

Query: Follow-up item: CC(O)C(=O)Nc1sc(S(=O)(=O)c2ccc(Cl)cc2)cc1C(N)=O (single isomer, unassigned; enantiomer 1)
Response: 5.86

Query: Follow-up item: C[C@H](O)C(=O)Nc1sc(S(=O)(=O)c2ccc(F)cc2)cc1C(N)=O
Response: 5.82

Query: Follow-up item: NC(=O)c1cc(S(=O)(=O)c2ccc(F)cc2F)sc1NC(=O)C1(O)CC1
Response: 5.75

Query: Follow-up item: CC(C)(CO)C(=O)Nc1sc(S(=O)(=O)c2ccc(F)cc2)cc1C(N)=O
Response: 5.48

Continuing:
Query: Any idea what its pEC50 is? The compound is CN(CC(C)(C)C)S(=O)(=O)c1cc(C(N)=O)c(NC(=O)c2cc[nH]n2)s1
Response: 6.53

Query: Follow-up item: COc1cc(S(=O)(=O)c2cc(C(N)=O)c(NC(=O)C(C)(C)O)s2)c(OC(F)F)cn1
Response: 6.41

Query: Follow-up item: CCc1ccccc1S(=O)(=O)c1cc(C(N)=O)c(NC(=O)C(C)O)s1 (stereo not shown)
Response: 5.74

----------
Biological target: CFTR-G178R (Homo sapiens, UniProt P13569, G178R)
Sequence (P13569 whole entry G178R): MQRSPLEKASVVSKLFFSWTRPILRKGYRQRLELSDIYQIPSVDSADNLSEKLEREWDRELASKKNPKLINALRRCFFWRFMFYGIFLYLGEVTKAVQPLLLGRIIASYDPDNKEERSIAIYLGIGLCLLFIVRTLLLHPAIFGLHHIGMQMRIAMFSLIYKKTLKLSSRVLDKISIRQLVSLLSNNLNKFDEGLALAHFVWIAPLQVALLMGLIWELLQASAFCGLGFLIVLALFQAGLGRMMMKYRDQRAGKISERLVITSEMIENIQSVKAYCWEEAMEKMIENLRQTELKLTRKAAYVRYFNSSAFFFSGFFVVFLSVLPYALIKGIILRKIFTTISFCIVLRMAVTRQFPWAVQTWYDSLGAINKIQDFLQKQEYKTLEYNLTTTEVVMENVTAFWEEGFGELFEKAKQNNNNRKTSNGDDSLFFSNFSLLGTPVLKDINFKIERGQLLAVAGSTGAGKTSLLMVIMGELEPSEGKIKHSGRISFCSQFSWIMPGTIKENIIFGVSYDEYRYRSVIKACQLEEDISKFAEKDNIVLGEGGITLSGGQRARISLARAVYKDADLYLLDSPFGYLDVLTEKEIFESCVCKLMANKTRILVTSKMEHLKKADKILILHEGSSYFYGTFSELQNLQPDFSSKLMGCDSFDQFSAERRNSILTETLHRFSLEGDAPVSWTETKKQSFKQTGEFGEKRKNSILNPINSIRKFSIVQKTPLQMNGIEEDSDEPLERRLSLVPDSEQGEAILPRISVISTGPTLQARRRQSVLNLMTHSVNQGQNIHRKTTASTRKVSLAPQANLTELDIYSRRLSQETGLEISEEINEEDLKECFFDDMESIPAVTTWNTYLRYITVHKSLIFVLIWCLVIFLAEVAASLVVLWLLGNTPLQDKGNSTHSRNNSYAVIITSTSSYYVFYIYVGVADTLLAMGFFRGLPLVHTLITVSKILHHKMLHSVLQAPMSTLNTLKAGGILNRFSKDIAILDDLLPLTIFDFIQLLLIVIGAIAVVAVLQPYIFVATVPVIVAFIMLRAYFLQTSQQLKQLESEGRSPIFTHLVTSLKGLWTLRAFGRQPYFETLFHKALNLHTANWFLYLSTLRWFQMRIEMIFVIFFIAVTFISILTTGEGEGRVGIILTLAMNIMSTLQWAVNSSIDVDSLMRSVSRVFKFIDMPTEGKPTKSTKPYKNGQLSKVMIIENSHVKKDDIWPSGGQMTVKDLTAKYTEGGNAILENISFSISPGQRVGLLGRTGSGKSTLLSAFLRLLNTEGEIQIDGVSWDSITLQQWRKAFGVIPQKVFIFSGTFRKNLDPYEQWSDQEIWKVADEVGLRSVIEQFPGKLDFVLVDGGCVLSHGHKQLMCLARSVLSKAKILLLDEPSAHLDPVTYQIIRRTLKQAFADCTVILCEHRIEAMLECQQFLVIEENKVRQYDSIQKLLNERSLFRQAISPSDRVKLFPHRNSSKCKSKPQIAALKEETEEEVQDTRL
Test: YFP-halide influx assay for the CFTR-G178R
Experimental: The YFP halide influx assay measures the functionality of the cystic fibrosis Transmembrane Conductance regulator (CFTR) channels. […] It makes use of the observation that the yellow fluorescent protein (YFP) variant YFP H148Q, I152L, […] has its fluorescence substantially quenched by halide ions like Cl^− and I^−. […] The I^−-induced quenching of fluorescence is recorded immediately after injection of I^− for 7 seconds. […]
The entries below are paired with their reported pEC50.
Scale: negative log10 of molar concentration, which is what pEC50 denotes.

Here's what some known entries look like.
Query: Any idea what its pEC50 is? The molecule is CC(C)(O)C(=O)Nc1sc(S(=O)(=O)c2cc(F)ccc2Br)cc1C(N)=O
Response: 6.72

Query: Follow-up item: CC(C)(O)C(=O)Nc1sc(S(=O)(=O)c2ccc(C(C)(C)C)cn2)cc1C(N)=O
Response: 6.66

Query: Follow-up item: Cc1cc(C(F)(F)F)cc(S(=O)(=O)c2cc(C(N)=O)c(NC(=O)C(C)(C)O)s2)c1
Response: 6.55

Let us examine a further case.
Query: Any idea what its pEC50 is? The molecule is CC(C)(O)C(=O)Nc1sc(S(=O)(=O)c2ccc(F)cc2Cl)cc1C(N)=O
Response: 6.78

----------
Molecular target: CFTR G551D mutant (Homo sapiens, UniProt P13569, G551D)
Construct: expressed in transfected cells; host or cells: HEK293 (reverse transfection with plasmid)
Assay: YFP-halide influx assay for the CFTR-G551D mutation
Type: cell-based
Conditions: HEK293 cells, forskolin 10.67 μM
Protocol: The YFP halide influx assay measures the functionality of the cystic fibrosis Transmembrane Conductance regulator (CFTR) channels. […] It makes use of the observation that the yellow fluorescent protein (YFP) variant YFP H148Q, I152L, […] has its fluorescence substantially quenched by halide ions like Cl^− and I^−. […] The I^−-induced quenching of fluorescence is recorded immediately after injection of I^− for 7 seconds. […]
pEC50: −log10 of the molar value.
Mark no (0) for pEC50 values under 6, and yes (1) for everything at or above.

Illustrative cases are given below, each with its answer.
Query: Is pEC50 for COc1ccc(OC(F)(F)F)c(S(=O)(=O)c2cc(C(N)=O)c(NC(=O)C(C)CO)s2)c1 (centres unmarked) at or above 6?
Response: yes (1)

Query: Follow-up item: CC(C)(O)C(=O)Nc1sc(S(=O)(=O)c2cc(Cl)ncc2C#N)cc1C(N)=O
Response: no (0)

Query: Follow-up item: CC(C)(O)C(=O)Nc1sc(S(=O)(=O)c2ncccc2Cl)cc1C(N)=O
Response: no (0)

Query: Follow-up item: CC(C)(O)C(=O)Nc1sc(S(=O)(=O)c2ccc(C(F)(F)F)nn2)cc1C(N)=O
Response: no (0)

Continuing:
Query: Is pEC50 for CN1COCc2cc(S(=O)(=O)c3cc(C(N)=O)c(NC(=O)C(C)(C)O)s3)ccc21 at or above 6?
Response: no (0)
